targetUnderTest: human Claudin 18.2 (hCLDN18.2) (human, UniProt P56856-2 1-261)
methodSummary: cell-based or functional assay
assayEndpoint: ADCC Maximum lysis (%)
# number only, unit % dropped from output

Would you please look over these solved cases?
binder	measuredResult
ch-32G8 (antibody, V domains shown, also called chimeric antibody of clone 32G8) VH: EVHLQQSGPVLVKPGASVKMSCKASGYTFTDYHMNWVKQSHGKSLEWIGVINPYNGGIRYNQKFKGKATLTVDKSSSTAYMELNSLTSEDSAVYYCATIYYGNSFAYWGQGTLVTVSA VL: DIVMTQSPSSLTVTAGEKVTMSCKSSQSLLNSGNQKNYLTWYQQKPGQPPKLLIYWASTRESGVPDRFTGSGSGTDFTLTISSVQAEDLAVYYCQNNYIYPFTFGGGTKLEIR	46.8
ch-253C4 (antibody, V domains shown, also called chimeric antibody of clone 253C4) VH: QVQLKQSGAELVRPGASVSLSCKTSGYIFTSYWIHWVKQRSGQGLEWIGRFYPGTGTAYYNENFEGKATLTADRSSSTAYMQLSSLKSDDSAVYFCTREGYGKGNAMDYWGQGTSVTVSS VL: DIVMTQSPSSLTVTTGEKVTLSCKSSQSLLNSGNQKNYLTWYQQKSGQPPELLIYWASTRESGVPDRFTGSGSGTDFTLTVSSVQAEDLAVYYCQNDYYFPFTFGGGTKLEIK	35.7
ch-59F9 (antibody, V domains shown, also called chimeric antibody of clone 59F9) VH: QVQLQQSGAELMKPGASVKLPCKASGYTLTGYWIEWLKQRPRHGLEWIGEILLGSGSIKYNVKFKDKATFTADTSSNTAYMQLNSLTTEDSAIYYCARKGLRGNSFDYWGQGTTLTVSS VL: DIVMTQSPSSLTVTAGEKVTMSCKSSQSLLNSGNQKSYLTWYQQKPGQPPKRLIYWASTRESGVPDRFTGSGSGTDFTLTISSVQAEDLAVYYCQNDYYYPFTFGSGTKLEIK	29.4
ch-287F12 (antibody, V domains shown, also called chimeric antibody of clone 287F12) VH: QIQLVQSGPELKRPGETVRISCKASGFTFTTAGMHWVQKMAGKGLKWLGWTNTHSGEPKYAEDFKGRFAFSLDTSGSDAYLQIGNLKYEDAATYFCAKWGRGNALDYWGQGTSVTVSS VL: DIVMTQSPSSLTVTAGEKVTMTCKSSQSLLNSGNQKNYLTWYQQKPGQPPKLLIYWASTRESGVPDRFTGSGSGTDFTLTINTVQAEDLAVYYCQNTYSYPLTFGGGTKLELR	35.5

The recorded ADCC Maximum lysis (%) for ch-48H1 (antibody, V domains shown, also called chimeric antibody of clone 48H1) VH: QVQLQQPGAELVKPGTSVKLSCKASGYIFTNYWTHWMKQRPGQGLEWIGMIHPNSGSSNYNEKFKSKATLTVDRSSSTVYMQLRRLTSEDSAVYYCTRIHYGNSMDYWGQGTSVTVSS VL: DIVMTQSPSSLTVTAGEKVTMSCKSSQSLFNSGNQKNYLTWYQQKPGQPPKLLIYWASTWESGVPDRFTGSGSGTDFTLTISSVQAEDLAVYYCQNAYSYPFTFGSGTKLEIK is 44.7

The reported numbers originate from patent US20220411492A1.
